# Test system: L1210 leukemia ip in BDF1 mice, survival T/C
# experimental.protocol: NCI In Vivo Anticancer Drug Screen. Data for tumor model L1210 Leukemia (intraperitoneal) in B6D2F1 (BDF1) mice
# run.parameters: endpoint: mean survival time; dose: 400.0 mg/kg/injection; schedule: Q01DX001 (ip); vehicle: Klucel (hydroxypropylcellulose) (HPC); higher = longer survival
Inconclusive results and toxic doses are left out.
readout.label: T/C

Previously resolved entries follow.
Q. Record request: T/C value, item `O=C(Oc1cccc(OC(=O)c2ccc(Cl)cc2)c1)c1ccc(Cl)cc1`
A. 93 % of control

Q. Record request: T/C value, item CCSC(=O)N1C=Cc2ccccc2C1C#N (stereo not drawn)
A. 101 % of control

Q. Record request: T/C value, item `CC/C(=C(/Cl)c1ccccc1)c1ccccc1`
A. 100 % of control

Q. Record request: T/C value, item `Cc1cc(NC(=O)NC/C=C/Br)c2ccccc2n1`
A. 97 % of control

Q. Record request: T/C value, item `COC(=O)CCc1c(C)[nH]c(C(=O)OC(C)(C)C)c1C`
A. 93 % of control

More entries:
Q. Record request: T/C value, item `O=C(O)c1ccc(Oc2ccc([N+](=O)[O-])cc2)cc1`
A. 108 % of control

Q. Record request: T/C value, item `Cc1cc(=O)[nH]c(=S)[nH]1`
A. 92 % of control

Q. Record request: T/C value, item FC1=C(F)C2(F)C3CCC(O3)C2(F)C(Br)=C1F (stereo not drawn)
A. 100 % of control

Q. Record request: T/C value, item `c1ccc([C@H]2O[C@@H]2c2ccccc2)cc1`
A. 103 % of control

###

# Test system: L1210 leukemia ip in BDF1 mice, survival T/C
# experimental.protocol: NCI In Vivo Anticancer Drug Screen. Data for tumor model L1210 Leukemia (intraperitoneal) in B6D2F1 (BDF1) mice
# run.parameters: endpoint: mean survival time; dose: 400.0 mg/kg/injection; schedule: Q01DX001 (ip); vehicle: Klucel (hydroxypropylcellulose) (HPC); higher = longer survival
Toxic doses and inconclusive results are not listed.
Some molecules, each annotated with its measured T/C.

Q. Record request: T/C value, item `CC(C)Nc1ccc(C(=O)O)cc1`
A. 102 % of control

Q. Record request: T/C value, item O=C1OC(=O)C2C(c3ccccc3)C=C(Cl)C(CCCl)C12 (stereo not drawn)
A. 95 % of control

Q. Record request: T/C value, item `CC(=O)NCCOc1ccc([N+](=O)[O-])cc1`
A. 102 % of control

Q. Record request: T/C value, item `O=c1cc(NCCc2ccccc2)[nH]c(=O)[nH]1`
A. 105 % of control

Q. Record request: T/C value, item `Cc1cc(Br)ccc1NNS(=O)(=O)c1cccc(N)c1`
A. 91 % of control

More entries:
Q. Record request: T/C value, item `Clc1cccc(/C=C2\c3cc(Cl)ccc3-c3c(Cl)cc(Cl)cc32)c1`
A. 93 % of control

Q. Record request: T/C value, item `COc1ccc(OC)c(C(=S)N2CCOCC2)c1`
A. 100 % of control

Q. Record request: T/C value, item `CC(C)(C)OC(=O)C(=[N+]=[N-])C(=O)OC(C)(C)C`
A. 90 % of control

###

# Test system: L1210 leukemia ip in BDF1 mice, survival T/C
# experimental.protocol: NCI In Vivo Anticancer Drug Screen. Data for tumor model L1210 Leukemia (intraperitoneal) in B6D2F1 (BDF1) mice
# run.parameters: endpoint: mean survival time; dose: 400.0 mg/kg/injection; schedule: Q04DX003 (ip); vehicle: saline with Tween-80; higher = longer survival
Inconclusive results and toxic doses are left out.
Some compounds, each annotated with its measured T/C.

Q. Record request: T/C value, item `CCOCc1cccc2ccccc12`
A. 102 % of control

Q. Record request: T/C value, item O=C1CC2C=CCC12 (stereo not drawn)
A. 93 % of control

Q. Record request: T/C value, item `CC(C)NC(=O)Nc1cccc(OC(=O)NC(C)(C)C)c1`
A. 89 % of control

Q. Record request: T/C value, item O=S(=O)(O)C(Nc1ccccc1)c1ccccc1 (stereo not drawn)
A. 93 % of control

Q. Record request: T/C value, item `CCOc1ccc(Br)cc1`
A. 101 % of control

Q. Record request: T/C value, item `Cc1ccc(Cl)c([N+](=O)[O-])c1N`
A. 104 % of control

More entries:
Q. Record request: T/C value, item `Cc1[o+]c(C)c2c(c1C)-c1ccccc1C2=O`
A. 98 % of control

Q. Record request: T/C value, item `O=C(O)c1ccc(COc2ccc([N+](=O)[O-])cc2Cl)cc1`
A. 101 % of control

Q. Record request: T/C value, item `Cc1c(-c2ccccc2)sc(N)c1C#N`
A. 100 % of control

Q. Record request: T/C value, item O=C1c2cc(-c3ccccc3)c(-c3ccccc3)cc2C(c2ccccc2)(c2ccccc2)C1Br (stereo not drawn)
A. 93 % of control

Q. Record request: T/C value, item `Cc1ccc(S(=O)(=O)OCCCOS(=O)(=O)c2ccc(C)cc2)cc1`
A. 98 % of control

Q. Record request: T/C value, item CC1Cc2c(cccc2[N+](=O)[O-])C1=O (stereo not drawn)
A. 107 % of control

Q. Record request: T/C value, item `CCOC(=O)C(C=Nc1ccc(S(N)(=O)=O)cc1)C(=O)OCC`
A. 92 % of control

###

# Test system: L1210 leukemia ip in BDF1 mice, survival T/C
# experimental.protocol: NCI In Vivo Anticancer Drug Screen. Data for tumor model L1210 Leukemia (intraperitoneal) in B6D2F1 (BDF1) mice
# run.parameters: endpoint: mean survival time; dose: 100.0 mg/kg/injection; schedule: Q01DX009 (ip); vehicle: saline; higher = longer survival
Toxic doses and inconclusive results are not listed.
Some compounds, each annotated with its measured T/C.

Q. # get_value(readout= T/C, system= L1210 leukemia ip in BDF1 mice, survival T/C) for `Cc1ccc[nH]c1=O`
A. 93 % of control

Q. # get_value(readout= T/C, system= L1210 leukemia ip in BDF1 mice, survival T/C) for `C1CCC(OB2OB(OC3CCCCC3)OB(OC3CCCCC3)O2)CC1`
A. 97 % of control

Q. # get_value(readout= T/C, system= L1210 leukemia ip in BDF1 mice, survival T/C) for CCOC(=O)N1C=Cn2c(cnc2C)C1O (centres undefined)
A. 94 % of control

Q. # get_value(readout= T/C, system= L1210 leukemia ip in BDF1 mice, survival T/C) for `CCOC(=O)CN(C)C#N`
A. 101 % of control

Q. # get_value(readout= T/C, system= L1210 leukemia ip in BDF1 mice, survival T/C) for NC(=O)C(N)Cc1ccc(O)c(O)c1 (centres undefined)
A. 107 % of control

Q. # get_value(readout= T/C, system= L1210 leukemia ip in BDF1 mice, survival T/C) for `CS(=O)(=O)c1nc(N)nc2nc[nH]c12`
A. 97 % of control

Q. # get_value(readout= T/C, system= L1210 leukemia ip in BDF1 mice, survival T/C) for `O=C(Cn1cc(F)c(=O)[nH]c1=O)c1ccco1`
A. 90 % of control

###

# Tested on: L1210 leukemia ip in BDF1 mice, survival T/C
# experimental.protocol: NCI In Vivo Anticancer Drug Screen. Data for tumor model L1210 Leukemia (intraperitoneal) in B6D2F1 (BDF1) mice
# run.parameters: endpoint: mean survival time; dose: 200.0 mg/kg/injection; schedule: Q01DX001 (ip); vehicle: saline; higher = longer survival
# Protocol: The antitumor activity of compounds was measured in mice bearing transplantable tumors. Survival or tumor size were measured and the results are expressed as the measurement made in the treated group (T) divided by the measurement made in the vehicle treated control group (C). The tumor model used in this assay is L1210 Leukemia (intraperitoneal) in B6D2F1 (BDF1) mice
Inconclusive results and toxic doses are left out.
Some compounds, each annotated with its measured T/C.

Q. Record request: T/C value, item `O=S(=O)(CCCCl)N1CCOCC1`
A. 106 % of control

Q. Record request: T/C value, item `O=S(=O)(/C(Br)=C\c1ccccc1)c1ccccc1`
A. 102 % of control

Q. Record request: T/C value, item `COCC/C(COC)=N/N`
A. 122 % of control

Q. Record request: T/C value, item O=C(O)C(SCc1ccccc1)c1ccccc1 (stereo not drawn)
A. 98 % of control

Q. Record request: T/C value, item CC(C)C(N)C(=O)O (stereo not drawn)
A. 100 % of control

Q. Record request: T/C value, item O=C(O)C1(Cl)C2(Cl)C(Cl)=CC3(Cl)C(Cl)(C(=O)O)C2(Cl)C31Cl (stereo not drawn)
A. 101 % of control

Q. Record request: T/C value, item Nc1nc(N)c2ncn(C3OC(CO)C(O)C3O)c2n1 (stereo not drawn)
A. 115 % of control

Q. Record request: T/C value, item `CCCCCCCCCCCCCCCCCCCC[As](=O)(O)CCCCCCCCCCCCCCCCCCCC`
A. 95 % of control

Q. Record request: T/C value, item `CC(C)(CO)N=Cc1cc([N+](=O)[O-])ccc1O`
A. 107 % of control

Q. Record request: T/C value, item CCOC(=O)CCC(N)C(=O)OCC (stereo not drawn)
A. 91 % of control

More entries:
Q. Record request: T/C value, item COC(=O)C1=C(N)OC(C)(C)C1c1ccc(Cl)cc1 (stereo not drawn)
A. 94 % of control

Q. Record request: T/C value, item `Cc1ccc(C(=O)N2CCCCC2)c[n+]1C`
A. 100 % of control

Q. Record request: T/C value, item `CN1CC(C)(C)C(=O)N1`
A. 86 % of control

Entry source: PubChem BioAssay AID248
